- Test system: HeLa Kyoto
- protocol: solubility change mitosis vs G1/S (difference of NP-40 vs SDS log2 ratios) (log2 ratio difference); higher = more soluble in mitosis
Property: solubility change mitosis (log2); scope: individual substances

substance	solubility change mitosis (log2)
MPGRSSSNSGSTGFISFSGVESALSSLKNFQACINSGMDTASSVALDLVESQTEVSSEYSMDKAMVEFATLDRQLNHYVKAVQSTINHVKEERPEKIPDLKLLVEKKFLALQSKNSDADFQNNEKFVQFKQQLKELKKQCGLQADREADGTEGVDEDIIVTQSQTNFTCPITKEEMKKPVKNKVCGHTYEEDAIVRMIESRQKRKKKAYCPQIGCSHTDIRKSDLIQDEALRRAIENHNKKRHRHSE [NSMCE2]	0.0514
MERPQPDSMPQDLSEALKEATKEVHTQAENAEFMRNFQKGQVTRDGFKLVMASLYHIYVALEEEIERNKESPVFAPVYFPEELHRKAALEQDLAFWYGPRWQEVIPYTPAMQRYVKRLHEVGRTEPELLVAHAYTRYLGDLSGGQVLKKIAQKALDLPSSGEGLAFFTFPNIASATKFKQLYRSRMNSLEMTPAVRQRVIEEAKTAFLLNIQLFEELQELLTHDTKDQSPSRAPGLRQRASNKVQDSAPVETPRGKPPLNTRSQAPLLRWVLTLSFLVATVAVGLYAM [HMOX1]	-0.0689
PIKFYVE	-0.153
MDDQGCPRCKTTKYRNPSLKLMVNVCGHTLCESCVDLLFVRGAGNCPECGTPLRKSNFRVQLFEDPTVDKEVEIRKKVLKIYNKREEDFPSLREYNDFLEEVEEIVFNLTNNVDLDNTKKKMEIYQKENKDVIQKNKLKLTREQEELEEALEVERQENEQRRLFIQKEEQLQQILKRKNKQAFLDELESSDLPVALLLAQHKDRSTQLEMQLEKPKPVKPVTFSTGIKMGQHISLAPIHKLEEALYEYQPLQIETYGPHVPELEMLGRLGYLNHVRAASPQDLAGGYTSSLACHRALQDAFSGLFWQPS [MNAT1]	0.565

---

- System: HeLa Kyoto
- protocol: melting temperature (median over replicates), in situ; higher = more thermally stable
- protocol.conditions: cell cycle stage: mitosis
Property: melting temperature; scope: individual sequences

input.sequence	target.or.test.system	melting temperature
MARFALTVVRHGETRFNKEKIIQGQGVDEPLSETGFKQAAAAGIFLNNVKFTHAFSSDLMRTKQTMHGILERSKFCKDMTVKYDSRLRERKYGVVEGKALSELRAMAKAAREECPVFTPPGGETLDQVKMRGIDFFEFLCQLILKEADQKEQFSQGSPSNCLETSLAEIFPLGKNHSSKVNSDSGIPGLAASVLVVSHGAYMRSLFDYFLTDLKCSLPATLSRSELMSVTPNTGMSLFIINFEEGREVKPTVQCICMNLQDHLNGLTETR [TIGAR]	HeLa Kyoto	50.3 °C
METLYRVPFLVLECPNLKLKKPPWLHMPSAMTVYALVVVSYFLITGGIIYDVIVEPPSVGSMTDEHGHQRPVAFLAYRVNGQYIMEGLASSFLFTMGGLGFIILDRSNAPNIPKLNRFLLLFIGFVCVLLSFFMARVFMRMKLPGYLMG [OSTC]	HeLa Kyoto	54.8 °C
MDPGKDKEGVPQPSGPPARKKFVIPLDEDEVPPGVAKPLFRSTQSLPTVDTSAQAAPQTYAEYAISQPLEGAGATCPTGSEPLAGETPNQALKPGAKSNSIIVSPRQRGNPVLKFVRNVPWEFGDVIPDYVLGQSTCALFLSLRYHNLHPDYIHGRLQSLGKNFALRVLLVQVDVKDPQQALKELAKMCILADCTLILAWSPEEAGRYLETYKAYEQKPADLLMEKLEQDFVSRVTECLTTVKSVNKTDSQTLLTTFGSLEQLIAASREDLALCPGLGPQKARRLFDVLHEPFLKVP [ERCC1]	HeLa Kyoto	51 °C

---

- Tested on: HeLa Kyoto
- protocol: solubility in G1/S (NP-40 vs SDS abundance) (log2 ratio); higher = more soluble
- protocol.conditions: cell cycle stage: G1/S
Quick rule for you: solubility in G1/S (log2) at 0.09 or higher means Fulfilled, lower means Not fulfilled.

input.sequence	class.assignment
MSGSFELSVQDLNDLLSDGSGCYSLPSQPCNEVTPRIYVGNASVAQDIPKLQKLGITHVLNAAEGRSFMHVNTNANFYKDSGITYLGIKANDTQEFNLSAYFERAADFIDQALAQKNGRVLVHCREGYSRSPTLVIAYLMMRQKMDVKSALSIVRQNREIGPNDGFLAQLCQLNDRLAKEGKLKP [DUSP3]	Fulfilled
MIEQQKRKGPELPLVPVKRQRHELLLGAGSGPGAGQQQATPGALLQAGPPRCSSLQAPIMLLSGHEGEVYCCKFHPNGSTLASAGFDRLILLWNVYGDCDNYATLKGHSGAVMELHYNTDGSMLFSASTDKTVAVWDSETGERVKRLKGHTSFVNSCYPARRGPQLVCTGSDDGTVKLWDIRKKAAIQTFQNTYQVLAVTFNDTSDQIISGGIDNDIKVWDLRQNKLTYTMRGHADSVTGLSLSSEGSYLLSNAMDNTVRVWDVRPFAPKERCVKIFQGNVHNFEKNLLRCSWSPDGSKIAAGSADRFVYVWDTTSRRILYKLPGHAGSINEVAFHPDEPIIISASSDKRLYMGEIQ [SNRNP40]	Not fulfilled
MARENGESSSSWKKQAEDIKKIFEFKETLGTGAFSEVVLAEEKATGKLFAVKCIPKKALKGKESSIENEIAVLRKIKHENIVALEDIYESPNHLYLVMQLVSGGELFDRIVEKGFYTEKDASTLIRQVLDAVYYLHRMGIVHRDLKPENLLYYSQDEESKIMISDFGLSKMEGKGDVMSTACGTPGYVAPEVLAQKPYSKAVDCWSIGVIAYILLCGYPPFYDENDSKLFEQILKAEYEFDSPYWDDISDSAKDFIRNLMEKDPNKRYTCEQAARHPWIAGDTALNKNIHESVSAQIRKNFAKSKWRQAFNATAVVRHMRKLHLGSSLDSSNASVSSSLSLASQKDCLAPSTLCSFISSSSGVSGVGAERRPRPTTVTAVHSGSK [CAMK1D]	Not fulfilled
MSLLLYYALPALGSYAMLSIFFLRRPHLLHTPRAPTFRIRLGAHRGGSGELLENTMEAMENSMAQRSDLLELDCQLTRDRVVVVSHDENLCRQSGLNRDVGSLDFEDLPLYKEKLEVYFSPGHFAHGSDRRMVRLEDLFQRFPRTPMSVEIKGKNEELIREIAGLVRRYDRNEITIWASEKSSVMKKCKAANPEMPLSFTISRGFWVLLSYYLGLLPFIPIPEKFFFCFLPNIINRTYFPFSCSCLNQLLAVVSKWLIMRKSLIRHLEERGVQVVFWCLNEESDFEAAFSVGATGVITDYPTALRHYLDNHGPAARTS [GDPD3]	Not fulfilled

---

- Test system: HeLa Kyoto
- protocol: thermal stability score vs G1/S (z-score of summed log2 fold changes over temperatures); higher = more thermally stable than in G1/S
- protocol.conditions: cell cycle stage: early G1 (4.5 h after nocodazole release)
Property: thermal stability score; scope: individual sequences
observable: thermal stability score

input.sequence	observable	readout.value
MLLLTRSPTAWHRLSQLKPRVLPGTLGGQALHLRSWLLSRQGPAETGGQGQPQGPGLRTRLLITGLFGAGLGGAWLALRAEKERLQQQKRTEALRQAAVGQGDFHLLDHRGRARCKADFRGQWVLMYFGFTHCPDICPDELEKLVQVVRQLEAEPGLPPVQPVFITVDPERDDVEAMARYVQDFHPRLLGLTGSTKQVAQASHSYRVYYNAGPKDEDQDYIVDHSIAIYLLNPDGLFTDYYGRSRSAEQISDSVRRHMAAFRSVLS [SCO2]	thermal stability score	1.37
MVFYFTSSSVNSSAYTIYMGKDKYENEDLIKHGWPEDIWFHVDKLSSAHVYLRLHKGENIEDIPKEVLMDCAHLVKANSIQGCKMNNVNVVYTPWSNLKKTADMDVGQIGFHRQKDVKIVTVEKKVNEILNRLEKTKVERFPDLAAEKECRDREERNEKKAQIQEMKKREKEEMKKKREMDELRSYSSLMKVENMSSNQDGNDSDEFM [CCDC25]	thermal stability score	-0.0583
MAAAAAQGGGGGEPRRTEGVGPGVPGEVEMVKGQPFDVGPRYTQLQYIGEGAYGMVSSAYDHVRKTRVAIKKISPFEHQTYCQRTLREIQILLRFRHENVIGIRDILRASTLEAMRDVYIVQDLMETDLYKLLKSQQLSNDHICYFLYQILRGLKYIHSANVLHRDLKPSNLLINTTCDLKICDFGLARIADPEHDHTGFLTEYVATRWYRAPEIMLNSKGYTKSIDIWSVGCILAEMLSNRPIFPGKHYLDQLNHILGILGSPSQEDLNCIINMKARNYLQSLPSKTKVAWAKLFPKSDSKALDLLDRMLTFNPNKRITVEEALAHPYLEQYYDPTDEPVAEEPFTFAMELDDLPKERLKELIFQETARFQPGVLEAP [MAPK3]	thermal stability score	-0.246
MASEELQKDLEEVKVLLEKATRKRVRDALTAEKSKIETEIKNKMQQKSQKKAELLDNEKPAAVVAPITTGYTVKISNYGWDQSDKFVKIYITLTGVHQVPTENVQVHFTERSFDLLVKNLNGKSYSMIVNNLLKPISVEGSSKKVKTDTVLILCRKKVENTRWDYLTQVEKECKEKEKPSYDTETDPSEGLMNVLKKIYEDGDDDMKRTINKAWVESREKQAKGDTEF [CACYBP]	thermal stability score	0.00133
MFLVGLTGGIASGKSSVIQVFQQLGCAVIDVDVMARHVVQPGYPAHRRIVEVFGTEVLLENGDINRKVLGDLIFNQPDRRQLLNAITHPEIRKEMMKETFKYFLRGYRYVILDIPLLFETKKLLKYMKHTVVVYCDRDTQLARLMRRNSLNRKDAEARINAQLPLTDKARMARHVLDNSGEWSVTKRQVILLHTELERSLEYLPLRFGVLTGLAAIASLLYLLTHYLLPYA [DCAKD]	thermal stability score	-0.154
MVELMFPLLLLLLPFLLYMAAPQIRKMLSSGVCTSTVQLPGKVVVVTGANTGIGKETAKELAQRGARVYLACRDVEKGELVAKEIQTTTGNQQVLVRKLDLSDTKSIRAFAKGFLAEEKHLHVLINNAGVMMCPYSKTADGFEMHIGVNHLGHFLLTHLLLEKLKESAPSRIVNVSSLAHHLGRIHFHNLQGEKFYNAGLAYCHSKLANILFTQELARRLKGSGVTTYSVHPGTVQSELVRHSSFMRWMWWLFSFFIKTPQQGAQTSLHCALTEGLEILSGNHFSDCHVAWVSAQARNETIARRLWDVSCDLLGLPID [RDH11]	thermal stability score	-0.184
MAAPQDVHVRICNQEIVKFDLEVKALIQDIRDCSGPLSALTELNTKVKEKFQQLRHRIQDLEQLAKEQDKESEKQLLLQEVENHKKQMLSNQASWRKANLTCKIAIDNLEKAELLQGGDLLRQRKTTKESLAQTSSTITESLMGISRMMAQQVQQSEEAMQSLVTSSRTILDANEEFKSMSGTIQLGRKLITKYNRRELTDKLLIFLALALFLATVLYIVKKRLFPFL [BNIP1]	thermal stability score	1.09
MDDLCEANGTFAISLFKILGEEDNSRNVFFSPMSISSALAMVFMGAKGSTAAQMSQALCLYKDGDIHRGFQSLLSEVNRTGTQYLLRTANRLFGEKTCDFLPDFKEYCQKFYQAELEELSFAEDTEECRKHINDWVAEKTEGKISEVLDAGTVDPLTKLVLVNAIYFKGKWNEQFDRKYTRGMLFKTNEEKKTVQMMFKEAKFKMGYADEVHTQVLELPYVEEELSMVILLPDDNTDLAVVEKALTYEKFKAWTNSEKLTKSKVQVFLPRLKLEESYDLEPFLRRLGMIDAFDEAKADFSGMSTEKNVPLSKVAHKCFVEVNEEGTEAAAATAVVRNSRCSRMEPRFCADHPFLFFIRHHKTNCILFCGRFSSP [SERPINB8]	thermal stability score	-0.0278
MALRELKVCLLGDTGVGKSSIVWRFVEDSFDPNINPTIGASFMTKTVQYQNELHKFLIWDTAGQERFRALAPMYYRGSAAAIIVYDITKEETFSTLKNWVKELRQHGPPNIVVAIAGNKCDLIDVREVMERDAKDYADSIHAIFVETSAKNAININELFIEISRRIPSTDANLPSGGKGFKLRRQPSEPKRSCC [RAB22A]	thermal stability score	1.25
MKKEHVLHCQFSAWYPFFRGVTIKSVILPLPQNVKDYLLDDGTLVVSGRDDPPTHSQPDSDDEAEEIQWSDDENTATLTAPEFPEFATKVQEAINSLGGSVFPKLNWSAPRDAYWIAMNSSLKCKTLSDIFLLFKSSDFITRDFTQPFIHCTDDSPDPCIEYELVLRKWCELIPGAEFRCFVKENKLIGISQRDYTQYYDHISKQKEEIRRCIQDFFKKHIQYKFLDEDFVFDIYRDSRGKVWLIDFNPFGEVTDSLLFTWEELISENNLNGDFSEVDAQEQDSPAFRCTNSEVTVQPSPYLSYRLPKDFVDLSTGEDAHKLIDFLKLKRNQQEDD [CDC123]	thermal stability score	1.5
MATKIDKEACRAAYNLVRDDGSAVIWVTFKYDGSTIVPGEQGAEYQHFIQQCTDDVRLFAFVRFTTGDAMSKRSKFALITWIGENVSGLQRAKTGTDKTLVKEVVQNFAKEFVISDRKELEEDFIKSELKKAGGANYDAQTE [COTL1]	thermal stability score	3.44
